biological target: human OPRM1 (μ, MOR) (Homo sapiens); construct: host or cells: CHO-K1; assay type: cell-based
Counter-ions that a name gives are not always drawn.
Readings of Bias Factor (ΔRA of compound relative to ΔRA of DAMGO) × 10 for the listed compounds
Measured Parameter: Bias Factor (ΔRA of compound relative to ΔRA of DAMGO) × 10

{"Compound": "CN(C)C1(CNC(=O)N2Cc3ccccc3C2)CCCC1", "Value": "<−14.83"}
{"Compound": "CN(C)C(CNC(=O)N[C@H]1CCc2ccc(O)cc2C1)c1ccsc1 (stereo partly drawn)", "Value": "<−14.83"}
{"Compound": "CN(C)C(CNC(=O)N[C@@H]1CCc2ccccc2C1)c1ccsc1 (stereo partly drawn) [Compound 47]", "Value": "<−14.83"}
{"Compound": "CNC(CNC(=O)N1Cc2ccccc2C1)c1ccccc1 (single isomer, unassigned) [Compound 38-ent-B]", "Value": "<−14.83"}
{"Compound": "CN(C)[C@H](CCNC(=O)N1Cc2ccc(F)cc2C1)c1ccsc1", "Value": "−5.73"}
{"Compound": "CN(C)C(CNC(=O)N[C@H]1CCc2ccccc2C1)c1ccsc1 (stereo partly drawn) [Compound 67]", "Value": "<−14.83"}
{"Compound": "COc1ccc(C(CNC(=O)N2Cc3ccccc3C2)N(C)C)cc1 (stereo not drawn) [Compound 15a, hydrochloride]", "Value": "−8.71"}
{"Compound": "CN(C)C(CNC(=O)N(C)C1CCCc2ccccc21)c1ccsc1 (stereo not drawn) [Compound 13a, hydrochloride]", "Value": "−8.39"}
{"Compound": "CN(C)[C@@H](CCNC(=O)N1Cc2ccc(F)cc2C1)c1ccsc1", "Value": "<−14.83"}
{"Compound": "CN(C)[C@H](CCNC(=O)N1CC[C@H](c2ccccc2)C1)c1ccsc1", "Value": "−3.97"}
{"Compound": "CN(C)C(CNC(=O)NC1CCc2ccccc2C1)c1ccsc1 (stereo not drawn) [Compound 10a, hydrochloride]", "Value": "<−14.83"}
{"Compound": "CN(C)C(CNC(=O)N[C@H]1CCc2ccccc2C1)c1ccsc1 (stereo partly drawn) [Compound 52]", "Value": "<−14.83"}
{"Compound": "CN(C)C(C)(C)CNC(=O)N1Cc2ccc(F)cc2C1", "Value": "<−14.83"}
{"Compound": "COc1ccc(C(CNC(=O)N2Cc3ccc(F)cc3C2)N(C)C)cc1 (stereo not drawn) [Compound 16a, hydrochloride]", "Value": "−9.60"}
{"Compound": "CN(C)[C@@H](CCNC(=O)N[C@@H]1CCc2ccccc2C1)c1ccsc1", "Value": "<−14.83"}
{"Compound": "CNC(CNC(=O)N1Cc2ccccc2C1)c1ccccc1 (stereo not drawn) [Compound 38]", "Value": "−12.56"}
{"Compound": "CN(C)C(CNC(=O)N[C@@H]1CCc2ccc(O)cc2C1)c1ccsc1 (stereo partly drawn)", "Value": "<−14.83"}
{"Compound": "CN(C)[C@H](CCNC(=O)N[C@@H]1CCc2ccccc2C1)c1ccsc1 [Compound 72]", "Value": "−0.99"}

* * *

biological target: human OPRM1 (μ, MOR) (Homo sapiens); construct: host or cells: CHO-K1; format: cell-based
Structures can show the parent of a compound that is named as a salt.
Readings of Bias Factor (ΔRA of compound relative to ΔRA of DAMGO) × 10 for the listed compounds
Measured Parameter: Bias Factor (ΔRA of compound relative to ΔRA of DAMGO) × 10

{"Compound": "CN(C)C(CNC(=O)N1Cc2cc(F)c(F)cc2C1)c1ccsc1 (stereo not shown) [Compound 6a, hydrochloride]", "Value": "<−14.83"}
{"Compound": "CN(C)C(CNC(=O)NC1CCc2ccccc2C1)c1ccccc1 (stereo not shown) [Compound 19a, hydrochloride]", "Value": "<−14.83"}
{"Compound": "CN(C)C(CNC(=O)N1CCCc2ccc(F)cc21)c1ccsc1 (stereo not shown) [Compound 8a]", "Value": "<−14.83"}
{"Compound": "CNC(CNC(=O)N1Cc2ccccc2C1)c1ccccc1 (single isomer, unassigned; (-)) [Compound 38-ent-A]", "Value": "<−14.83"}
{"Compound": "CN(C)C(CNC(=O)N1CCCc2ccccc21)c1ccsc1 (stereo not shown) [Compound 9a, hydrochloride]", "Value": "−6.20"}
{"Compound": "CN(C)C(CNC(=O)N1CCCc2ccccc21)c1ccccc1 (stereo not shown) [Compound 69a]", "Value": "−8.38"}
{"Compound": "CNC(CNC(=O)N1Cc2cccc(F)c2C1)c1ccsc1 (stereo not shown) [Compound 80]", "Value": "−6.64"}
{"Compound": "CN(C)[C@H](CCNC(=O)N1CC[C@@H](c2ccccc2)C1)c1ccsc1 [Compound 76]", "Value": "<−14.83"}
{"Compound": "CN(C)C(CNC(=O)N1CCCc2cc(F)ccc21)c1ccsc1 (stereo not shown) [Compound 7a, hydrochloride]", "Value": "<−14.83"}
{"Compound": "CN(C)C(CNC(=O)N1Cc2ccc(O)cc2C1)c1ccc(O)cc1 (stereo not shown) [Compound 24, hydrobromide]", "Value": "<−14.83"}

* * *

Target: human OPRM1 (μ, MOR) (Homo sapiens)
Construct: host or cells: CHO-K1
Format: cell-based
Procedure: In certain embodiments, the ability of a compound to activate G-protein or β-arrestin is not an on/off switch for a given pathway, but rather a continuous function. To capture this, each compound is measured for activity in cell assays that are linked to β-arrestin recruitment and G-protein signaling. By comparing the activity between these two measures (accounting for both EC50 and maximal response reached, Emax) a relative activity (RA) value is determined. […]
Structures can show the parent of a compound that is named as a salt.
Readings of Bias Factor (ΔRA of compound relative to ΔRA of DAMGO) × 10 for the listed molecules
Measured Parameter: Bias Factor (ΔRA of compound relative to ΔRA of DAMGO) × 10

{"Molecule": "CN(C)C(CNC(=O)N(C)[C@@H]1CCCc2ccccc21)c1ccsc1 (stereo partly drawn)", "Value": "<−14.83"}
{"Molecule": "COc1ccc(C(CNC(=O)N2CC[C@@H](c3ccccc3)C2)N(C)C)cc1 (stereo partly drawn)", "Value": "<−14.83"}
{"Molecule": "CN(C)C(CNC(=O)NC1CCCc2ccccc21)c1ccsc1 (stereo not drawn) [Compound 11a, hydrochloride]", "Value": 2.32}
{"Molecule": "CN(C)C(CNC(=O)N[C@H]1CCc2ccccc2C1)c1ccsc1 (stereo partly drawn) [Compound 51]", "Value": "<−14.83"}
{"Molecule": "CNC(CNC(=O)N1Cc2cccc(F)c2C1)c1ccsc1 (stereo not drawn) [Compound 81]", "Value": "<−14.83"}
{"Molecule": "CN(C)C(CNC(=O)N1Cc2ccccc2C1)c1ccc(F)cc1Cl (stereo not drawn) [Compound 14a, hydrochloride]", "Value": "−5.91"}
{"Molecule": "COc1ccc(C(CNC(=O)N2CC[C@H](c3ccccc3)C2)N(C)C)cc1 (stereo partly drawn)", "Value": "<−14.83"}
{"Molecule": "CN(C)C(CNC(=O)N1CC[C@H](c2ccccc2)C1)c1ccsc1 (stereo partly drawn)", "Value": "<−14.83"}
{"Molecule": "COc1ccc(C(CNC(=O)N2CCCc3cc(F)ccc32)N(C)C)cc1 (stereo not drawn) [Compound 68a]", "Value": "−8.36"}
{"Molecule": "CN(C)C(CNC(=O)N(C)[C@H]1CCCc2ccccc21)c1ccsc1 (stereo partly drawn)", "Value": "−1.90"}
{"Molecule": "CNC(CNC(=O)N1Cc2ccccc2C1)c1ccsc1 (stereo not drawn) [Compound 78]", "Value": "<−14.83"}
{"Molecule": "CN(C)C(CNC(=O)N[C@@H]1CCc2ccccc2C1)c1ccsc1 (stereo partly drawn) [Compound 66]", "Value": "<−14.83"}
{"Molecule": "CN(C)[C@@H](CCNC(=O)N1CC[C@@H](c2ccccc2)C1)c1ccsc1", "Value": "<−14.83"}
{"Molecule": "CN(C)C(CNC(=O)N1Cc2ccc(F)cc2C1)c1ccccc1 (stereo not drawn) [Compound 20a, hydrochloride]", "Value": "<−14.83"}
{"Molecule": "CNC(CNC(=O)N1Cc2ccc(F)cc2C1)c1ccsc1 (stereo not drawn)", "Value": "<−14.83"}
{"Molecule": "CN(C)C(CNC(=O)N1Cc2ccc(O)cc2C1)c1ccsc1 (stereo not drawn) [Compound 22, hydrobromide]", "Value": "<−14.83"}
{"Molecule": "CN(C)C(CNC(=O)N1Cc2ccccc2C1)c1ccccc1 (single isomer, unassigned) [Compound 58]", "Value": "−1.66"}
{"Molecule": "CN(C)C(CNC(=O)N1Cc2ccccc2C1)c1ccsc1 (stereo not drawn) [Compound 1a, hydrochloride]", "Value": "−5.75"}

* * *

target: human OPRM1 (μ, MOR) (Homo sapiens, UniProt P35372); construct: host or cells: CHO-K1; experiment: cell-based; conditions: OPRM1, read-out: β-Arrestin Emax
Sequence (P35372 whole entry): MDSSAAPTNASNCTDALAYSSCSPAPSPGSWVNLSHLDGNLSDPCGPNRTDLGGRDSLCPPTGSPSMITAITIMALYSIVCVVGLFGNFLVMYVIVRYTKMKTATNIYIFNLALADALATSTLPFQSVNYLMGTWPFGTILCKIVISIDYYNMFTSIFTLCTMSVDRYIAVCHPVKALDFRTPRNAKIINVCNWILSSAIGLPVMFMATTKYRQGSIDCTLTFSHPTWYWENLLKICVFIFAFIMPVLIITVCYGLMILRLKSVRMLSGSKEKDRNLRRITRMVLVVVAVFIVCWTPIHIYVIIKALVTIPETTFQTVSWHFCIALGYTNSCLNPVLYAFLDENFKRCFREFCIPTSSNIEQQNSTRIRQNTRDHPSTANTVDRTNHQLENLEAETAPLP
Where a name gives a salt, the structure may show the parent alone.

{"Molecule": "CN(C)[C@@H](CCNC(=O)N[C@H]1CCc2ccccc2C1)c1ccsc1", "Inequality Operator": "<", "Emax, %": 1}
{"Molecule": "CN(C)C(CNC(=O)NC1CCc2ccccc2C1)c1ccsc1 (centres unmarked) [Compound 10a, hydrochloride]", "Inequality Operator": "=", "Emax, %": 3.33}
{"Molecule": "CN(C)C(CNC(=O)N1Cc2ccccc2C1)c1ccsc1 (centres unmarked) [Compound 1a, hydrochloride]", "Inequality Operator": "=", "Emax, %": 5.67}
{"Molecule": "CN(C)C(CNC(=O)N1Cc2ccc(Cl)cc2C1)c1ccsc1 (centres unmarked) [Compound 4a, hydrochloride]", "Inequality Operator": "<", "Emax, %": 1}
{"Molecule": "CN(C)C(CNC(=O)N[C@H]1CCc2ccc(O)cc2C1)c1ccsc1 (some centres unmarked)", "Inequality Operator": "<", "Emax, %": 1}

Data credit: patent US20220315567A1
